experimental.system: delF508-CFTR (Homo sapiens, UniProt P13569, DEL508-508)
Construct: Unaltered CFBE41o− cells were used as the model; endogenous in cells
Sequence (P13569 with tags, fused parts or gaps DEL508-508): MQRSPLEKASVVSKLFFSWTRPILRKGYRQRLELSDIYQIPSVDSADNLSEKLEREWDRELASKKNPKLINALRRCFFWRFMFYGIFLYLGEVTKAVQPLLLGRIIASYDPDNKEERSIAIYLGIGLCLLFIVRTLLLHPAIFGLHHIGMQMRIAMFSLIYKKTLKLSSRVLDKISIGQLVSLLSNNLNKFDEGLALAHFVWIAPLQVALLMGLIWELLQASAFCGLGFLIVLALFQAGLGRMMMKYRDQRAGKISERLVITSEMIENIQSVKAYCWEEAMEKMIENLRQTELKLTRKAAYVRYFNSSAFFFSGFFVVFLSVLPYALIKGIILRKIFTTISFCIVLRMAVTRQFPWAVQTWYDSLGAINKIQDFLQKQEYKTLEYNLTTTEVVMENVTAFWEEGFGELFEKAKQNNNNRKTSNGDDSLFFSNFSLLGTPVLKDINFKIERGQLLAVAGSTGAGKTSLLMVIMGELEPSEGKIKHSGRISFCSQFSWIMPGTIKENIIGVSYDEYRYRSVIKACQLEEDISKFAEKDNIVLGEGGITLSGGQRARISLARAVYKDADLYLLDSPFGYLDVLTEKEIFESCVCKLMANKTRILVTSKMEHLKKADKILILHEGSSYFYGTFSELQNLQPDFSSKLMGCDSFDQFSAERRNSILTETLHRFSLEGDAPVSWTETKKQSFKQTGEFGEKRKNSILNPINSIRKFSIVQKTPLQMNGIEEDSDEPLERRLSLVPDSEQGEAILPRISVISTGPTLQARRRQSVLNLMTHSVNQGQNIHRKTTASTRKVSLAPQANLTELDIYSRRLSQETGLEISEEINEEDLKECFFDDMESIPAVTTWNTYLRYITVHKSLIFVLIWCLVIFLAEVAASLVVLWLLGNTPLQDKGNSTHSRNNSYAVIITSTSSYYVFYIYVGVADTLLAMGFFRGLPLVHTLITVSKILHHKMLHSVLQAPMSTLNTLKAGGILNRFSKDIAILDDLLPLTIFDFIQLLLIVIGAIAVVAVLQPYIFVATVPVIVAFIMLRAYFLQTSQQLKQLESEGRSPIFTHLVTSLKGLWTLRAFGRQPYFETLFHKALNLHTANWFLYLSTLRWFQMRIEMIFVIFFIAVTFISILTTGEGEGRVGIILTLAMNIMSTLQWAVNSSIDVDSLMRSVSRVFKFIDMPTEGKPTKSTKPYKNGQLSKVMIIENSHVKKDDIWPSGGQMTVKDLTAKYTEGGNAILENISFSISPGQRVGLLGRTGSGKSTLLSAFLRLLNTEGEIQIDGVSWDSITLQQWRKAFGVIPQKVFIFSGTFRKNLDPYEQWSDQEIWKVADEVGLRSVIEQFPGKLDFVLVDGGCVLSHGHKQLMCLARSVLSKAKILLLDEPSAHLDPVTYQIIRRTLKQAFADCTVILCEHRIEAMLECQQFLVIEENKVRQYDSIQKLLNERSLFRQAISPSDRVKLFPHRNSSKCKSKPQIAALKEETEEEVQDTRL
experimental.details: SPQ halide-sensitive fluorescence dye profiling assay (rescue of halide efflux)
particulars: SPQ assay, 8-point concentration-response curve, CFBE41o− cells
I'd appreciate it if you could supply EC50 values for the items below.
Number in µM, nothing else.

Prompt: Give recorded EC50 with delF508-CFTR (Homo sapiens, UniProt P13569, DEL508-508) for the following compound: `CCCOc1ccc(-c2c(C)nn3c(C)c(C(=O)O)nnc23)cc1`
Completion: 5.7

Prompt: For delF508-CFTR (Homo sapiens, UniProt P13569, DEL508-508), provide EC50 of `Cc1nn2c(C)c(C(=O)O)nnc2c1-c1ccc(OC(C)(C)C)cc1` please.
Completion: 11.6

Prompt: Please provide the recorded EC50 for `Cc1nn2c(C)c(C(=O)C(=O)O)nnc2c1-c1ccc(Cl)c(Cl)c1` , tested on delF508-CFTR (Homo sapiens, UniProt P13569, DEL508-508).
Completion: 6

Prompt: Lookup: EC50 / delF508-CFTR (Homo sapiens, UniProt P13569, DEL508-508) / `Cc1nn2c(C)c(C(=O)O)nnc2c1-c1ccc(OC(C)C)cc1`
Completion: 0.66

Prompt: What is its EC50 for delF508-CFTR (Homo sapiens, UniProt P13569, DEL508-508)? Entry: `Cc1nn2c(C)c(C(=O)O)nnc2c1-c1ccc(Cl)c(Cl)c1`
Completion: 0.1
